Target: hα7-wt nAChR-expressing GH4Cl cells (Homo sapiens)
Construct: expressed in transfected cells
Sequence (P36544 23-502): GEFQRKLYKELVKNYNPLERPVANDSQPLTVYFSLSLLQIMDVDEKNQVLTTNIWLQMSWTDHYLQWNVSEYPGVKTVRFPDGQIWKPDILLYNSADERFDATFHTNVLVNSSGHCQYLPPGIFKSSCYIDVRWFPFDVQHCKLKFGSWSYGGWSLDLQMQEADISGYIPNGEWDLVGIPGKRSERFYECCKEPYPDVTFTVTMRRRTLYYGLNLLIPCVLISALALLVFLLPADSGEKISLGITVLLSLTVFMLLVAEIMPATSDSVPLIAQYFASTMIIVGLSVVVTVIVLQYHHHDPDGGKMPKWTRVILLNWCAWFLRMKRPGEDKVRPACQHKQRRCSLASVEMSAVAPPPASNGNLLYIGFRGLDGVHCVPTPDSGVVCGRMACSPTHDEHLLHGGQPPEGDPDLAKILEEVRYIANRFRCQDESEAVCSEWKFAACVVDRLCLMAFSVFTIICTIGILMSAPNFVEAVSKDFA
Assay: Patch-clamp current recording (whole-cell), potentiation of choline 1 mM response, PAM type
Format: cell-based
Set-up: key: Type 0 compounds minimally enhance the effect size of the current elicited by 1 mM choline.; Type 1 compounds enhance the effect size of the current elicited by 1 mM choline but minimally alter the kinetics of the receptor.; Type 2 compounds enhance the effect size of the current elicited by 1 mM choline while reducing the rate and/or the extent of desensitization.; Type 3 compounds enhance the effect size of the current elicited by 1 mM choline. When tested at higher concentrations up to 10 μM they completely inhibit desensitization, in particular a 1 mM choline application of 250 milliseconds.; Type 4 compounds allow for an initial desensitization of the receptor followed by a re-opening of the receptor during agonist application
Settings: patch-clamp current recording, 1 mM choline
experimental.readout: Pam type

See these solved cases before continuing.
smiles.repr: COCCCc1nc(Nc2ccc(F)c(C(F)(F)F)c2)nn1-c1ccnc(C)c1
target.system: hα7-wt nAChR-expressing GH4Cl cells (Homo sapiens)
assay.value: 0
--
smiles.repr: COc1ccc(-n2nc(Nc3ccc(F)c(F)c3)nc2CCC(=O)N(C)C)cc1
target.system: hα7-wt nAChR-expressing GH4Cl cells (Homo sapiens)
assay.value: 4
--
smiles.repr: Cc1cc(-n2nc(Nc3ccc(F)c(F)c3)nc2C[C@@H](C)O)cc(C)n1
target.system: hα7-wt nAChR-expressing GH4Cl cells (Homo sapiens)
assay.value: 2
--
smiles.repr: Cc1cc(-n2nc(Nc3cccc(OC(F)(F)F)c3)nc2CC(=O)NCC2CC2)cc(C)n1
target.system: hα7-wt nAChR-expressing GH4Cl cells (Homo sapiens)
assay.value: 1
--
smiles.repr: Cc1cc(-n2nc(Nc3ccc4c(c3)OC(F)(F)O4)nc2CC(=O)NC2CCC2)cc(C)n1
target.system: hα7-wt nAChR-expressing GH4Cl cells (Homo sapiens)
assay.value: 1

For every item below, please supply its Pam type.
1. Cc1cc(-n2nc(Nc3ccc(F)c(C(F)(F)F)c3)nc2C[C@@H](C)O)cc(C)n1
2. Cc1cncc(-n2nc(Nc3ccc4c(c3)OC(F)(F)O4)nc2CCC(=O)N(C)C)c1

A.
1: 2; 2: 4

For every item below, please supply its Pam type.
1. CC[C@H](O)Cc1nc(Nc2cc(F)c(F)c(F)c2)nn1-c1ccnc(C)c1
2. CCNC(=O)Cc1nc(Nc2ccc(F)c(F)c2)nn1-c1cc(C)nc(C)c1
3. CC[C@H](O)Cc1nc(Nc2cc(F)c(F)c(F)c2)nn1-c1cc(C)nc(C)c1
4. CNC(=O)Cc1nc(Nc2ccc(F)c(C(F)(F)F)c2)nn1-c1ccnc(C)c1
5. COCCc1nc(Nc2ccc(F)c(C(F)(F)F)c2)nn1-c1ccnc(C)c1

A.
2
2
2
3
0

For every item below, please supply its Pam type.
1. CCNC(=O)Cc1nc(Nc2cccc(C(F)(F)F)c2)nn1-c1cc(C)nc(C)c1
2. CCNC(=O)Cc1nc(Nc2cccc(OC(F)(F)F)c2)nn1-c1cc(C)nc(C)c1
3. Cc1cc(-n2nc(Nc3ccc(F)c(F)c3)nc2CC(=O)NC2CCC2)c(C)cn1

A.
4
2
1
